The measured values listed here are drawn from patent US5399565A.

TESTED_TARGET: brain CCK receptor (Mus musculus, UniProt P56481)
Construct: from tissue; host or cells: forebrain membranes of male CF-1 mice
Sequence (P56481 whole entry): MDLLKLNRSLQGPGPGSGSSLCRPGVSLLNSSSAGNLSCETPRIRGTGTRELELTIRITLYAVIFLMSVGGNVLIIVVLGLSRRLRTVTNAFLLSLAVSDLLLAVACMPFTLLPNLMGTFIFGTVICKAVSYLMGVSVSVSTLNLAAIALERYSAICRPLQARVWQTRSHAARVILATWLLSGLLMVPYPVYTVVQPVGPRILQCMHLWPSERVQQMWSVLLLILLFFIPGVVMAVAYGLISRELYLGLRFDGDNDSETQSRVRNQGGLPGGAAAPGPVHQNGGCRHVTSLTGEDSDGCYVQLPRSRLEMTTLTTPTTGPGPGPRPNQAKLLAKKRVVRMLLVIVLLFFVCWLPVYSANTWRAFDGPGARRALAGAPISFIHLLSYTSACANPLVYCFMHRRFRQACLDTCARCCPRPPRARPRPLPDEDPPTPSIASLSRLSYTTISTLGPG
MEASUREMENT_PROTOCOL: CCK receptor binding, mouse brain membranes (125I-CCK-8 sulfate)
RUN_PARAMETERS: at 1 μM; read-out: Brain Percent Inhibition
Method: Brain CCK receptor binding was performed using mouse brain membranes according to the method of Chang and Lotti (Proc. Natl. Acad. Sci. 83: 4923-4926, 1986). Male CF-1 mice, 23-25 g were sacrificed by cervical dislocation, the forebrain removed and placed in ice cold 50 mM Tris buffer, pH 7.4. […] The filters were washed twice with 3 ml of 50 mM Tris buffer, pH 7.4, containing 0.01% BSA and then counted for radioactivity in plastic tubes with a Micromedic 10/600 automatic gamma counter. […]
Label f if inhibition at 1 µM falls below 40%; label t in every other case.

MOLECULE | TESTED_TARGET | LABEL_VALUE
O=C1NN(C(=O)Nc2cccc3ccccc23)[C@@H](c2ccccc2)[C@@H]1c1ccccc1 (relative stereo) | brain CCK receptor (Mus musculus, UniProt P56481) | t
CCCCC1C(c2ccccc2)C(=O)NN1C(=O)Nc1cccc(C(F)(F)F)c1 (stereo not shown) | brain CCK receptor (Mus musculus, UniProt P56481) | f

Determine whether this molecule has inhibition at 1 µM no lower than 40%: COc1ccc(NC(=O)N2NC(=O)[C@H](c3ccccc3)[C@H]2c2ccccc2)cc1OC (relative stereo) f

Determine whether this molecule has inhibition at 1 µM no lower than 40%: CN(C)c1ccc(C2C(c3ccccc3)C(=O)NN2C(=O)Nc2ccc(C(F)(F)F)cc2)cc1 (stereo not shown) f

Determine whether this molecule has inhibition at 1 µM no lower than 40%: O=C1NN(C(=O)Nc2cc(Cl)cc(Cl)c2)[C@H](c2ccccc2)[C@H]1c1ccccc1 (relative stereo) t

Determine whether this molecule has inhibition at 1 µM no lower than 40%: O=C1NN(C(=O)Nc2ccc(C3CCCCC3)cc2)[C@@H](c2ccccc2)[C@@H]1c1ccccc1 (relative stereo) t

Determine whether this molecule has inhibition at 1 µM no lower than 40%: O=C1NN(C(=O)Nc2ccc(-c3ccccc3)cc2)[C@@H](c2ccccc2)[C@@H]1c1ccccc1 (relative stereo) t

---

TESTED_TARGET: gastrin receptor (Cavia porcellus, UniProt H0VZC5)
Construct: Guinea pig stomach fundus was obtained from male Hartley guinea pigs; from tissue; host or cells: stomach fundus mucosal membranes of male Hartley guinea pigs
Sequence (H0VZC5 1-426): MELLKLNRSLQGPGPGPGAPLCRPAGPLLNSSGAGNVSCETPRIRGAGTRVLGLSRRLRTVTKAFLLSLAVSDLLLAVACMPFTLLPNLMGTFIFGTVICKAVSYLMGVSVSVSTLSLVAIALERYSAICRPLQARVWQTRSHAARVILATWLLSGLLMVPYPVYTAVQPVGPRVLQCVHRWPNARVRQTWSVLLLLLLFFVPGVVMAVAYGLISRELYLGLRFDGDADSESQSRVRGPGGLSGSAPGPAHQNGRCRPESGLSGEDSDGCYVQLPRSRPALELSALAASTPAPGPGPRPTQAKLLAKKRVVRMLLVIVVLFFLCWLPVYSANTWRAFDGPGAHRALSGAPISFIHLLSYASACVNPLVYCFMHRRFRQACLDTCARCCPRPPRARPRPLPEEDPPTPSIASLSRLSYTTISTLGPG
MEASUREMENT_PROTOCOL: Gastrin binding to guinea pig stomach mucosal membranes (125I-gastrin I)
RUN_PARAMETERS: guinea pig stomach mucosal membranes; read-out: Gastrin IC50
OBSERVATION_TYPE: pIC50
Units for pIC50: none; it is -log10 of a concentration expressed in mol/L.

Completed entries (count: 3):
COMPOUND | pIC50
COc1cccc(C2C(c3ccccc3)C(=O)NN2C(=O)Nc2ccc(C(F)(F)F)cc2)c1 (stereo not shown) [Example 112] | 5.85
O=C1NN(C(=O)Nc2ccc(Cl)c(C(F)(F)F)c2)C(c2ccccc2)C1c1ccccc1Cl (stereo not shown) [Example 131] | 7.21
O=C1NN(C(=O)Nc2ccc3c(c2)CCCC3)[C@H](c2ccccc2)[C@H]1c1ccccc1 (relative stereo) [Example 50] | 7.09

# context switch: different compound, same pIC50
Which pIC50 value belongs to CC(C)Oc1cccc(C2C(=O)NN(C(=O)Nc3ccc(Br)cc3)C2c2ccccc2)c1 (stereo not shown) [Example 124] ? 6.14

---

TESTED_TARGET: peripheral type CCK receptors in rat pancreas (Rattus norvegicus, UniProt P30551)
Construct: Pancreas was obtained from male Sprague-Dawley rats; from tissue; host or cells: pancreas membranes of male Sprague-Dawley rats
Sequence (P30551 whole entry): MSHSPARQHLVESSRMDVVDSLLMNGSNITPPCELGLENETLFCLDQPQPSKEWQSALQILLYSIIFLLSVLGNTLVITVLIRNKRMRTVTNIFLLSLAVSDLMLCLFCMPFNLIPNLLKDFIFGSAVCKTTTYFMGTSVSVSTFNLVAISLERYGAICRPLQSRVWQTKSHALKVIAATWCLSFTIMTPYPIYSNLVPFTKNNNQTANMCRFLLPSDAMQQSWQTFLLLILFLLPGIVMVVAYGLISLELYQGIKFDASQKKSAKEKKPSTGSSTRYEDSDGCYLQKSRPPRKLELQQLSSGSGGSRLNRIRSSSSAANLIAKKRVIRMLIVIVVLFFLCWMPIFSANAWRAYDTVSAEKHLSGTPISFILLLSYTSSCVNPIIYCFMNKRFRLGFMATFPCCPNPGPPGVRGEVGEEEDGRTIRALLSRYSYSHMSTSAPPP
MEASUREMENT_PROTOCOL: Binding to peripheral type CCK receptors in rat pancreas (3H-L-364,718)
RUN_PARAMETERS: at 10 μM; read-out: Pancreas Percent Inhibition
Label Not met if inhibition at 10 µM falls below 30%; label Met in every other case.

Some entries whose results are on file:
COMPOUND | LABEL_VALUE
CN(C)c1ccc(C2C(c3ccccc3)C(=O)NN2C(=O)Nc2ccc(C(F)(F)F)cc2)cc1 (stereo not drawn) | Not met
O=C1NN(c2nc3ccc(Br)cc3s2)[C@@H](c2ccccc2)[C@@H]1c1ccccc1 (relative stereo) | Not met
COc1ccc(C2C(=O)NN(C(=O)Nc3ccc(Br)cc3)C2c2ccccc2)cc1 (stereo not drawn) | Met
O=C1NN(C(=O)Nc2ccc(C(F)(F)F)cc2)C(c2ccccc2)C1c1ccccc1Cl (stereo not drawn) | Met
CC(NC(=O)N1NC(=O)[C@@H](c2ccccc2)[C@@H]1c1ccccc1)c1ccc(Br)cc1 (relative stereo) | Met
CCCCC1C(c2ccccc2)C(=O)NN1C(=O)Nc1ccc(C(F)(F)F)cc1 (stereo not drawn) | Met
CC(C)Oc1cccc(C2C(=O)NN(C(=O)Nc3ccc(Br)cc3)C2c2ccccc2)c1 (stereo not drawn) | Met
O=C1NN(C(=O)Nc2ccc(Cl)c(C(F)(F)F)c2)C(c2ccccc2)C1c1ccccc1Cl (stereo not drawn) | Met

Determine whether this compound has inhibition at 10 µM no lower than 30%: O=C1NN(C(=O)c2ccc(Cl)c(Cl)c2)[C@H](c2ccccc2)[C@H]1c1ccccc1 (relative stereo) Met

Determine whether this compound has inhibition at 10 µM no lower than 30%: O=C1NN(C(=O)Nc2ccc(Br)cc2)C(c2ccccc2Cl)C1c1ccccc1 (stereo not drawn) Met

Determine whether this compound has inhibition at 10 µM no lower than 30%: O=C1NN(C(=O)NCc2ccccc2)[C@@H](c2ccccc2)[C@@H]1c1ccccc1 (relative stereo) Not met

---

TESTED_TARGET: brain CCK receptor (Mus musculus)
Construct: from tissue; host or cells: forebrain membranes of male CF-1 mice
MEASUREMENT_PROTOCOL: CCK receptor binding, mouse brain membranes (125I-CCK-8 sulfate)
RUN_PARAMETERS: mouse brain membranes; read-out: Brain IC50
pIC50: −log10 of the molar value.
Label rule not met if pIC50 falls below 6; label rule met in every other case.

Some entries whose results are on file:
COMPOUND | LABEL_VALUE
O=C1NN(C(=S)Nc2ccc(Cl)c(C(F)(F)F)c2)[C@H](c2ccccc2)[C@H]1c1ccccc1 (relative stereo) [Example 63] | rule met
O=C1NN(C(=O)Nc2ccc(Br)cc2)C(c2cccnc2)C1c1ccccc1 (stereo not shown) [Example 135] | rule met

Determine whether this compound has pIC50 no lower than 6: O=C1NN(C(=O)Nc2ccc3c(c2)CCCC3)[C@H](c2ccccc2)[C@H]1c1ccccc1 (relative stereo) [Example 50] rule met

Determine whether this compound has pIC50 no lower than 6: COc1cccc(C2C(=O)NN(C(=O)Nc3ccc(Br)cc3)C2c2ccccc2)c1 (stereo not shown) [Example 123] rule met

Determine whether this compound has pIC50 no lower than 6: O=C1NN(C(=O)N2CCc3ccccc3C2)[C@@H](c2ccccc2)[C@@H]1c1ccccc1 (relative stereo) [Example 109] rule not met

---

TESTED_TARGET: peripheral type CCK receptors in rat pancreas (Rattus norvegicus)
Construct: Pancreas was obtained from male Sprague-Dawley rats; from tissue; host or cells: pancreas membranes of male Sprague-Dawley rats
MEASUREMENT_PROTOCOL: Binding to peripheral type CCK receptors in rat pancreas (3H-L-364,718)
RUN_PARAMETERS: at 10 μM; read-out: Pancreas Percent Inhibition
OBSERVATION_TYPE: inhibition at 10 µM (%)
Give just the numeric value; % need not be written.

COMPOUND | TESTED_TARGET | UNIT_LABEL | inhibition at 10 µM
CCCc1ccc(NC(=O)N2NC(=O)[C@@H](c3ccccc3)[C@@H]2c2ccccc2)cc1 (relative stereo) | peripheral type CCK receptors in rat pancreas (Rattus norvegicus) | % | 60
O=C1NN(C(=O)Nc2ccc(F)cc2)[C@@H](c2ccccc2)[C@@H]1c1ccccc1 (relative stereo) | peripheral type CCK receptors in rat pancreas (Rattus norvegicus) | % | 6
CC(C)c1ccc(NC(=O)N2NC(=O)C(c3ccccc3Cl)C2c2ccccc2)cc1 (stereo not shown) | peripheral type CCK receptors in rat pancreas (Rattus norvegicus) | % | 48
O=C1NN(C(=O)Nc2ccc(Br)cc2)[C@@H](c2cccc(Cl)c2Cl)[C@@H]1c1ccccc1 (relative stereo) | peripheral type CCK receptors in rat pancreas (Rattus norvegicus) | % | 80
CCCCC1C(=O)NN(C(=O)Nc2ccc(Br)cc2)C1c1ccccc1 (stereo not shown) | peripheral type CCK receptors in rat pancreas (Rattus norvegicus) | % | 12

Which inhibition at 10 µM value belongs to COc1cccc(NC(=O)N2NC(=O)[C@H](c3ccccc3)[C@H]2c2ccccc2)c1 (relative stereo) ? 37

Which inhibition at 10 µM value belongs to O=C1NN(C(=O)Oc2ccccc2)[C@@H](c2ccccc2)[C@@H]1c1ccccc1 (relative stereo) ? 9

Which inhibition at 10 µM value belongs to CC(C)(C)c1ccc(NC(=O)N2NC(=O)[C@@H](c3ccccc3)[C@@H]2c2ccccc2)cc1 (relative stereo) ? 49

Which inhibition at 10 µM value belongs to O=C1NN(c2nc3ccccc3o2)[C@@H](c2ccccc2)[C@@H]1c1ccccc1 (relative stereo) ? 23

Which inhibition at 10 µM value belongs to O=C1CC(c2ccc(-c3ccccc3)cc2)N(C(=O)Nc2cccc(Cl)c2Cl)N1 (stereo not shown) ? 70
